Data origin, for the record: PubChem BioAssay (NCATS)

# Tested System: Vitamin D3 receptor (Homo sapiens) (UniProt P11473)
# Sequence (P11473 whole entry, looked up): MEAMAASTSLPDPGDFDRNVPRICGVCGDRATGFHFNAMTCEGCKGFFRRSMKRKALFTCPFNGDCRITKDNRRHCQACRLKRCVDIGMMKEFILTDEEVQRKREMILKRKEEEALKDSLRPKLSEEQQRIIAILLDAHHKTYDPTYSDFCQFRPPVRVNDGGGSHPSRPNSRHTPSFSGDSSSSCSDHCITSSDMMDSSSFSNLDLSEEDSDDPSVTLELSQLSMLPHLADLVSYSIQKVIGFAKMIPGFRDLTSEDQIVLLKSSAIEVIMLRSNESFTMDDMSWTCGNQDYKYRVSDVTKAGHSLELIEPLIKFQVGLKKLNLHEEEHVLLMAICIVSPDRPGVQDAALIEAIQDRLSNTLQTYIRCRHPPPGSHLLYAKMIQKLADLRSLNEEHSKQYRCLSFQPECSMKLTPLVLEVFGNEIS
# Protocol Text: qHTS assay for small molecule agonists of vitamin D receptor signaling (AID 588543);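 note: 0% = DMSO basal and 100% = reference agonist control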
# Applied Conditions: HEK293T VDR-UAS-bla, beta-lactamase ratio, 16 h; series mostly up to 76.8 µM
Inconclusive results are not listed. The source made the active and inactive calls. Calls come from the whole dose curve.
Measurement Kind: outcome

Use the examples below as a reference point.
{"Molecule": "Oc1cccc(O)c1O", "outcome": "inactive"}
{"Molecule": "O=c1n(CC2CO2)c(=O)n(CC2CO2)c(=O)n1CC1CO1 (stereo unspecified)", "outcome": "inactive"}
{"Molecule": "CCCCCCCCCCCCCCCCCC(=O)OC[C@@H](O)[C@H]1OC[C@H](O)[C@H]1O", "outcome": "inactive"}
{"Molecule": "C/C=C/C=C/C(=O)O", "outcome": "inactive"}
{"Molecule": "CC1=CCC2CC1C2(C)C (stereo unspecified)", "outcome": "inactive"}

For the next question, use this molecule.
Lab entry: Vitamin D3 receptor (Homo sapiens) (UniProt P11473) assay, molecule CO/N=C(/C(=O)N[C@@H]1C(=O)N2C(C(=O)O)=C(COC(N)=O)CS[C@H]12)c1ccco1 , outcome = inactive

* * *

# Test system: CP194
# Protocol Text: qHTS profiling for inhibitors of Plasmodium falciparum proliferation (AID 504749);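 note: 0% = DMSO vehicle and full inhibition = artemisinin control; nearly all actives have a fitted effect of over 60% in size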
# Applied Conditions: P. falciparum in erythrocytes, SYBR Green DNA, 72 h; series mostly up to 28.7 µM
Records with an inconclusive call do not appear. Calls of active or inactive are those of the source. Calls come from the whole dose curve; as a rule, active = well fitted inhibition curve with a large enough effect; inconclusive = small, poorly fitted or top-dose-only effect; inactive = flat fitted curve, though single readings scatter.
Measurement Kind: outcome

Use the examples below as a reference point.
{"Molecule": "CC/C=C\\C/C=C\\C/C=C\\C/C=C\\C/C=C\\CCCC(=O)O", "Tested System": "CP194", "outcome": "inactive"}
{"Molecule": "CNC(=O)C[C@@H](N)C(=O)N[C@@H](C(=O)N[C@@H]1C(=O)N2[C@@H]1SC(C)(C)[C@@H]2C(=O)O)c1ccc(O)cc1", "Tested System": "CP194", "outcome": "inactive"}
{"Molecule": "CCC(Cc1c(I)cc(I)c(O)c1I)C(=O)O (stereo not given)", "Tested System": "CP194", "outcome": "inactive"}
{"Molecule": "CCCc1nc(C(C)(C)O)c(C(=O)OCc2oc(=O)oc2C)n1Cc1ccc(-c2ccccc2-c2nn[nH]n2)cc1", "Tested System": "CP194", "outcome": "inactive"}

For the next question, use this molecule.
outcome for O=C1NCCN1c1ncc([N+](=O)[O-])s1 is inactive

* * *

Would you mind telling me the reported activity, negative = cell killing of each entry?
# Protocol Text: Drug repurposing screens with cells derived from glioblastoma tumor samples (AID 1345199); note: % is set by controls: 0 for no effect and ±100 for the full control effect; nearly all actives have a fitted effect of over 40% in size
# Applied Conditions: GBM patient neurospheres viability, ATP luminescence, 48 h; at 45.9 µM (top of the series); tumour line B
Records with an inconclusive call do not appear. Calls of active or inactive are those of the source. Calls follow the shape of the dose curve; as a rule, active = well fitted inhibition curve with a large enough effect; inconclusive = small, poorly fitted or top-dose-only effect; inactive = flat fitted curve, though single readings scatter.

Use the examples below as a reference point.
{"Molecule": "C[C@H](O)CN(C)C", "Measurement Kind": "activity, negative = cell killing", "Reported Result": "-3.73% (inactive)"}
{"Molecule": "CNC(=O)[C@H](Cc1c[nH]c2ccccc12)NC(=O)[C@@H](CC(=O)NO)CC(C)C", "Measurement Kind": "activity, negative = cell killing", "Reported Result": "-23.5% (inactive)"}
{"Molecule": "CCCCC/C=C\\C/C=C\\C/C=C\\CCCCC(=O)O", "Measurement Kind": "activity, negative = cell killing", "Reported Result": "-11.2% (inactive)"}
{"Molecule": "CC(=O)Nc1ccc(OC(=O)c2ccccc2O)cc1", "Measurement Kind": "activity, negative = cell killing", "Reported Result": "-6.12% (inactive)"}
{"Molecule": "CCCCCCCCCCCC(=O)OCC(O)CO (stereo unspecified)", "Measurement Kind": "activity, negative = cell killing", "Reported Result": "-6.19% (inactive)"}
{"Molecule": "O=C[C@H](O)[C@@H](O)[C@@H](O)[C@H](O)CO", "Measurement Kind": "activity, negative = cell killing", "Reported Result": "-11.6% (inactive)"}
{"Molecule": "C=O", "Measurement Kind": "activity, negative = cell killing", "Reported Result": "-5.16% (inactive)"}
{"Molecule": "COC(=O)[C@H]1[C@H]2C[C@@H]3c4[nH]c5cc(OC)ccc5c4CCN3C[C@H]2C[C@H](OC)[C@@H]1OC", "Measurement Kind": "activity, negative = cell killing", "Reported Result": "-8.25% (inactive)"}
{"Molecule": "O=C(OCc1ccccc1)c1cccnc1", "Measurement Kind": "activity, negative = cell killing", "Reported Result": "-17.7% (inactive)"}
{"Molecule": "CO[C@H]1C=CO[C@@]2(C)Oc3c(C)c(O)c4c(O)c(cc(O)c4c3C2=O)NC(=O)/C(C)=C\\C=C/[C@H](C)[C@H](O)[C@@H](C)[C@@H](O)[C@@H](C)[C@H](OC(C)=O)[C@@H]1C", "Measurement Kind": "activity, negative = cell killing", "Reported Result": "-13.5% (inactive)"}

For the next question, use this molecule.
activity, negative = cell killing for O=C(O)/C=C/C(=O)Nc1ccc(S(=O)(=O)Nc2nccs2)cc1 is -4.39% (inactive)

* * *

# Tested on: CP194
# Protocol Text: qHTS profiling for inhibitors of Plasmodium falciparum proliferation (AID 504749);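 note: 0% = DMSO vehicle and full inhibition = artemisinin control; nearly all actives have a fitted effect of over 60% in size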
# Applied Conditions: P. falciparum in erythrocytes, SYBR Green DNA, 72 h; series mostly up to 28.7 µM
Records with an inconclusive call do not appear. Calls of active or inactive are those of the source. The call rests on the fitted dose curve; in most records, active means well fitted inhibition curve with a large enough effect; inconclusive means small, poorly fitted or top-dose-only effect; inactive means flat fitted curve, though single readings scatter.
Give one outcome, nothing more. List: active, inactive

Recorded results for 3 compounds are shown here.
{"Compound": "CC1CC(OC(=O)C(O)c2ccccc2)CC(C)(C)C1 (centres undefined)", "Tested System": "CP194", "Class": "inactive"}
{"Compound": "CC(CNC(=O)c1cccnc1)NC(=O)c1cccnc1 (centres undefined)", "Tested System": "CP194", "Class": "inactive"}
{"Compound": "CC1(O)CCC(C(C)(C)O)CC1 (centres undefined)", "Tested System": "CP194", "Class": "inactive"}

query: Answer briefly: the call reported for CC(=O)Nc1ccc(NC(=S)NC(=O)c2ccc(C(C)(C)C)cc2)cc1 in this assay.
result: inactive

query: Answer briefly: the call reported for CC/C=C\C/C=C\C/C=C\C/C=C\C/C=C\C/C=C\CCC(=O)O in this assay.
result: inactive

query: Answer briefly: the call reported for Cc1cc(C)c(NC(=O)C[C@H](CC(=O)O)c2cccc3ccccc23)c(C(=O)N2CCC3(CCCC3)CC2)c1 in this assay.
result: inactive

* * *

# Protocol Text: Drug repurposing screens with cells derived from glioblastoma tumor samples (AID 1345199); note: % is set by controls: 0 for no effect and ±100 for the full control effect; nearly all actives have a fitted effect of over 40% in size
# Applied Conditions: GBM patient neurospheres viability, ATP luminescence, 48 h; at 21.2 µM (top of the series); tumour line D
Inconclusive results are not listed. Activity calls are given as the source filed them. The call rests on the fitted dose curve; in most records, active means well fitted inhibition curve with a large enough effect; inconclusive means small, poorly fitted or top-dose-only effect; inactive means flat fitted curve, though single readings scatter. Where a SMILES comes first, the peptide text is derived from it. Bridges are numbered along the chain shown (N, C = ends). [ ]: non-standard residue; d: D form. The star is where a group is joined. X2 = CC[C@H](C)CCCCC(=O)*; Dab = NCC[C@H](N)C(=O)O
Measurement Kind: activity, negative = cell killing

Use the examples below as a reference point.
{"Compound": "CC(=O)N=c1sc(S(N)(=O)=O)nn1C", "activity, negative = cell killing": "-24.8% (inactive)"}
{"Compound": "CCOC(=O)Oc1c(OC)cc(C(=O)O[C@@H]2C[C@@H]3CN4CCc5c([nH]c6cc(OC)ccc56)[C@H]4C[C@@H]3[C@H](C(=O)OC)[C@H]2OC)cc1OC", "activity, negative = cell killing": "-4.51% (inactive)"}

// for each compound below, give its activity, negative = cell killing
1. C[C@@H]1NC(=O)[C@@H](N)CNC(=O)[C@H](C2CCNC(N)=N2)NC(=O)/C(=C/NC(N)=O)NC(=O)[C@H](CNC(=O)C[C@@H](N)CCCN)NC1=O (stereo partly specified)
2. CC[C@H](C)CCCCC(=O)N[C@@H](CCN)C(=O)N[C@H](C(=O)N[C@@H](CCN)C(=O)N[C@H]1CCNC(=O)[C@@H]([C@H](C)O)NC(=O)[C@H](CCN)NC(=O)[C@H](CCN)NC(=O)[C@H](CC(C)C)NC(=O)[C@@H](CC(C)C)NC(=O)[C@H](CCN)NC1=O)[C@@H](C)O (X2-[Dab]T[Dab][Dab][Dab][dL]L[Dab][Dab][dT]; lactam 4-C)
3. CCCCC[C@H](O)/C=C/[C@H]1[C@H](O)CC(=O)[C@@H]1CCCCCCC(=O)O
4. CCN1C(=O)NC(c2ccccc2)C1=O (stereo unspecified)
5. CO[C@@]1(NC(=O)C2SC(=C(C(N)=O)C(=O)O)S2)C(=O)N2C(C(=O)O)=C(CSc3nnnn3C)CS[C@@H]21 (stereo partly specified)
6. OCCN1CCN(CC/C=C2/c3ccccc3Sc3ccc(Cl)cc32)CC1

result:
1: -13.8% (inactive); 2: -6.08% (inactive); 3: -20.2% (inactive); 4: -11.8% (inactive); 5: -10.4% (inactive); 6: -24.9% (inactive)
